# system: CYP2C9 (Homo sapiens, UniProt P11712)
# Sequence (P11712 whole entry): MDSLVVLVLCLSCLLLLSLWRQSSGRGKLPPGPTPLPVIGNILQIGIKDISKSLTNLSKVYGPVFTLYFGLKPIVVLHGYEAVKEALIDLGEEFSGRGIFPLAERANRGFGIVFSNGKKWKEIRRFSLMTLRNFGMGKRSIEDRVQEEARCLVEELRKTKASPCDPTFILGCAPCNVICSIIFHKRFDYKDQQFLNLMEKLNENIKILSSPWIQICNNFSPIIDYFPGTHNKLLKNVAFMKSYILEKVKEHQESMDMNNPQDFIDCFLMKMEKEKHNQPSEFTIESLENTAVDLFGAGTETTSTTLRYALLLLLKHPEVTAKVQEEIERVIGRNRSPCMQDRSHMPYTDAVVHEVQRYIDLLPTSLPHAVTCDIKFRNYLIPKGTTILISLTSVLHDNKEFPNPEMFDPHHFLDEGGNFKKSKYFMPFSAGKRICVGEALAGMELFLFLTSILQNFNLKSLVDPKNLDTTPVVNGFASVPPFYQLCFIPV
property-label: IC50

Request: Given the compound Cc1cccc(OC2CCN(Cc3cc(=O)[nH]c(=O)[nH]3)CC2)c1C , write its reported IC50.
Response: > 25 µM

###

# system: CYP1A2 (Homo sapiens)
# Sequence (P05177 2-516): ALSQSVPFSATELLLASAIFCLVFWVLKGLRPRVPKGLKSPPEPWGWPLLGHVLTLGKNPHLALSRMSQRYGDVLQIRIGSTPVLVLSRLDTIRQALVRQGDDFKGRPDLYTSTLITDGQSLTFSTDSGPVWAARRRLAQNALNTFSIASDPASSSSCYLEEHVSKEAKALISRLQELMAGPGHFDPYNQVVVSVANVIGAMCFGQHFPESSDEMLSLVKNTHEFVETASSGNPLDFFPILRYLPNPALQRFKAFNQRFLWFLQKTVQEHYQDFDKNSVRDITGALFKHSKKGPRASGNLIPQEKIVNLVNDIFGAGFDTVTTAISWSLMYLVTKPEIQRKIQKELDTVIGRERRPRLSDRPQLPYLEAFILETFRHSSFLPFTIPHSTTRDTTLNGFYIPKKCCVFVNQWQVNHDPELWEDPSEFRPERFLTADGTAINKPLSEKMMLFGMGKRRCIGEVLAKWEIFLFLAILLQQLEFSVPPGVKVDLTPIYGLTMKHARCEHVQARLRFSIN
pIC50: −log10 of the molar value.
property-label: pIC50

Request: Given the compound Cc1cccc(OC2CCN(Cc3cc(=O)[nH]c(=O)[nH]3)CC2)c1C , write its reported pIC50.
Response: < 4.60
